- Tested on: SK-MEL-2 melanoma
- Protocol text: NCI-60 one-dose screen, 48 h
- Assay setup: 10 µM unless noted
Compounds without any hit were thinned out: in the full panel of roughly 83,000, 20% have a hit. Active and inactive are the calls of the source. The calls were made as follows: active = growth percent below 10; inactive = the rest.
Labels: active, inactive

| Molecule | Subject of test | Label |
| --- | --- | --- |
| O=C(NCCCl)Nc1nccnc1OCc1ccc(F)cc1 | SK-MEL-2 melanoma | inactive |
| COC(=O)C1CC(=O)N(C(=O)Nc2ccc(Cl)cc2Cl)C1 (stereo unspecified) | SK-MEL-2 melanoma | inactive |
| COc1ccc(C2C3(C#N)C(N)=NC(=C(C#N)C#N)C23C#N)cc1OC (stereo unspecified) | SK-MEL-2 melanoma | inactive |
| O=C1C(Br)=CC2C1C1C3CCC3C2(Br)C12OCCO2 (stereo unspecified) | SK-MEL-2 melanoma | inactive |
| CC(=O)NNC(=O)c1sc(NC(C)=O)nc1C | SK-MEL-2 melanoma | inactive |
| C/C=C(/C)C(=O)OC1C=C(CO)C(=O)C(OC(=O)/C(C)=C\C)C1C(C)C (stereo unspecified) | SK-MEL-2 melanoma | active |

* * *

- System: HS 578T breast
- Protocol text: NCI-60 one-dose screen, 48 h (100 = growth as untreated, 0 = no growth, -100 = all killed)
- Assay setup: 10 µM unless noted
About 83,000 compounds went through this panel and 20% of them were active in at least one assay; those are over-represented in the sample as a whole.
# growth listing for each entry below

| Compound | growth [%] |
| --- | --- |
| O=C(Nc1ccc(-n2cc(-c3ccncc3)c(-c3ccc(Cl)c(O)c3)n2)cc1)c1cc(Cl)cc(Cl)c1 | -14.5 |
| N#Cc1c2cccnc2c2nnc3cc(Cl)c(Cl)cc3n12 | -56.8 |
| Nc1nc2cc(O)ccc2n2cc3c(F)cccc3c12 | -21.4 |
| CCCCCCCCCCC1OC(C)CC(C)O1 (stereo unspecified) | 101 |
| O=C(CCl)c1ccc2c(c1)CCCC2 | 94.7 |
| C[C@@H](c1ccc2c(c1)[nH]c1ccc(Cl)cc12)c1nc2ccccc2[nH]1 | 105 |
| CC(C)CSc1nc(-c2ccc(F)cc2)c(C#N)c(N2CCCCC2)n1 | 99.4 |
| CCCC[N+](C)(N)CCCC | 115 |
| CCCC(C)c1cc(Cc2cc(Cl)cc(Cl)c2O)c(O)c(Cc2cc(Cl)cc(Cl)c2O)c1 (stereo unspecified) | 1.09 |
| CC1(C)C(O)NC(Cl)=C(C#N)C1(C#N)C#N (stereo unspecified) | 114 |
| COc1ccc(/C=N/c2cc(C(C)(C)C)nn2-c2ccccc2)cc1 | 107 |

* * *

- System: T-47D breast
- Protocol text: NCI-60 one-dose screen, 48 h (100 = growth as untreated, 0 = no growth, -100 = all killed)
- Assay setup: 10 µM unless noted
About 83,000 compounds went through this panel and 20% of them were active in at least one assay; those are over-represented in the sample as a whole. The source made the active and inactive calls. How the source made its calls: active means growth percent below 10; inactive means the rest.
Endpoint label: growth

| Compound | Subject of test | Result |
| --- | --- | --- |
| CC(=O)c1nn(-c2ccc(C)cc2)cc1C(=O)c1cc2c(ccc3ccccc32)oc1=O | T-47D breast | 75.2% (inactive) |
| N#Cc1ccc(OCc2nc(N)nc(N)c2-c2ccc(Cl)c(Cl)c2)cc1 | T-47D breast | 82.2% (inactive) |
| COc1ccc(OC)c(Cn2cc3c(c2)-c2oncc2CC3)c1 | T-47D breast | 36.1% (inactive) |
| O=C(O)CS(=O)c1ccc(Cl)cc1 (configuration not stated) | T-47D breast | 101% (inactive) |
| COc1cc(-c2nn(-c3ccc(NC(=O)c4ccc(Cl)c(C(F)(F)F)c4)cc3)cc2-c2ccncc2)ccc1Cl | T-47D breast | 26.7% (inactive) |
| Cc1ccc(OCCn2ccc(=O)n(CCOc3ccc(Cl)cc3C(=O)c3cc(C)cc(C)c3)c2=O)cc1 | T-47D breast | 39.5% (inactive) |
| CC[n+]1c(C)ccc2cc(C)ccc21 | T-47D breast | 91.3% (inactive) |
| C=C(NC(=O)[C@H](C(C)C)N(C)c1cccc2[nH]ccc12)C(=O)OC | T-47D breast | 95.4% (inactive) |
| [N-]=[N+]=Nc1ncc(-c2ccc(C(F)(F)F)cc2)c(NC2CCCCCC2)n1 | T-47D breast | 21.3% [100 µM] (inactive) |
| CCCCCCCCCCCCCCCC[n+]1cccc(C#N)c1 | T-47D breast | 49.2% (inactive) |
| Clc1ccc(I)c2ccccc12 | T-47D breast | 96.8% (inactive) |
| O=C1C(=O)c2ccccc2C(O)=C1CCCc1ccc(C2CCCC2)cc1 | T-47D breast | 59.8% (inactive) |
| CC1=NN(c2cccc(Cl)c2)C(=O)/C1=C\c1cn(-c2nc(N3CCOCC3)nc(N3CCOCC3)n2)c2ccccc12 | T-47D breast | 99.8% (inactive) |
| CCCCCCCCCCN1CC2CCCCC2C1 (configuration not stated) | T-47D breast | 56.7% (inactive) |
| CC(C)(C)C(=O)CCCCCCCC/C=C/CCCC(O)c1ccco1 (configuration not stated) | T-47D breast | 104% (inactive) |
| CC(C)(CNC1CCCCC1)OC(=O)c1ccccc1 | T-47D breast | 104% (inactive) |
| CCCCCCCCC1OC1CCCCCCCC(=O)O (configuration not stated) | T-47D breast | 99% (inactive) |
| CCOC(=O)c1cc(-c2ccc(OC)cc2)[nH]c1NNC(=O)CCOC | T-47D breast | 95.2% (inactive) |
| COc1cc(/C(=C2/O[C@@H]([C@H]3COC(C)(C)O3)[C@H]3OC(C)(C)O[C@@H]23)c2ccc3c(c2)OCO3)cc(OC)c1OC | T-47D breast | 55.9% (inactive) |
| O=C(CN1CCN(c2cccc(Cl)c2)CC1)N1CCN(c2nnc(-c3ccc(Cl)cc3)c(-c3ccc(Cl)cc3)n2)CC1 | T-47D breast | 50.1% (inactive) |
| Oc1ccc(CN(Cc2ccc(C(F)(F)F)cc2)Cc2ccc(O)c3ncccc23)c2cccnc12 | T-47D breast | 20.2% (inactive) |
| O=C(N/N=C/c1coc2ccccc2c1=O)c1cc2oc(-c3ccccc3)cc2[nH]1 | T-47D breast | 84.7% (inactive) |
